Molecular target: Polyunsaturated fatty acid 5-lipoxygenase (Rattus norvegicus)
Sequence (P12527 whole entry): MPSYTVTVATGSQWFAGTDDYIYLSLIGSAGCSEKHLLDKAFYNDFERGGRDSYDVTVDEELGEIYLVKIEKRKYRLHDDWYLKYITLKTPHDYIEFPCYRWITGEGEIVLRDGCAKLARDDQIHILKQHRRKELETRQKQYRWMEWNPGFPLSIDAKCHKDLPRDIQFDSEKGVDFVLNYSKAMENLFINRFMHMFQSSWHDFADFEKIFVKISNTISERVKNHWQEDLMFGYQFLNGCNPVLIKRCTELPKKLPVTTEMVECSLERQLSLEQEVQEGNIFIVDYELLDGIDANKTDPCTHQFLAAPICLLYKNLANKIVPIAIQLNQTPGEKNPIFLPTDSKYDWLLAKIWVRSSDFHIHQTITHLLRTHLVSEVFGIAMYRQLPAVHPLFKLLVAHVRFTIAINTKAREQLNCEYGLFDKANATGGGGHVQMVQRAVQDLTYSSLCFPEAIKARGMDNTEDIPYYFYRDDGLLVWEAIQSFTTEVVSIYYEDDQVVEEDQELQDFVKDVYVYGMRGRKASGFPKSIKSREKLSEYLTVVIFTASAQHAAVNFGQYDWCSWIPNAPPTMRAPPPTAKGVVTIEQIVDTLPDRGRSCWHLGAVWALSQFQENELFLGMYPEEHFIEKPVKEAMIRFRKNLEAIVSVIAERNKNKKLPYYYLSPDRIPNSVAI
Property: pIC50; scope: individual compounds
Here pIC50 is given on a logarithmic scale as minus log10 of the concentration in mol/L.

Sample answers from the record:
Task: Checklist item: pIC50 tested on Polyunsaturated fatty acid 5-lipoxygenase (Rattus norvegicus), entry CC(C)(C)c1cc(/C=C2\SC(NC#N)=NC2=O)cc(C(C)(C)C)c1O , value?
Output: 6.20

Task: Checklist item: pIC50 tested on Polyunsaturated fatty acid 5-lipoxygenase (Rattus norvegicus), entry C/C(=C1/SC(=O)NC1=O)c1cc(C(C)(C)C)c(O)c(C(C)(C)C)c1 , value?
Output: 6.32

Task: Checklist item: pIC50 tested on Polyunsaturated fatty acid 5-lipoxygenase (Rattus norvegicus), entry CN(O)C1=NC(=O)/C(=C/c2cc(C(C)(C)C)c(O)c(C(C)(C)C)c2)S1 , value?
Output: 5.14

Task: Checklist item: pIC50 tested on Polyunsaturated fatty acid 5-lipoxygenase (Rattus norvegicus), entry CC(C)(C)c1cc(/C=C2\SC(NO)=NC2=O)cc(C(C)(C)C)c1O , value?
Output: 5.43

// switching to the query compound
Task: Checklist item: pIC50 tested on Polyunsaturated fatty acid 5-lipoxygenase (Rattus norvegicus), entry CC(C)(C)c1cc(/C=C2\OC(N=C(N)N)=NC2=O)cc(C(C)(C)C)c1O.CS(=O)(=O)O , value?
Output: 5.92
